Molecular target: Heat shock protein HSP 90-beta (Homo sapiens, UniProt P08238)
Sequence (P08238 whole entry): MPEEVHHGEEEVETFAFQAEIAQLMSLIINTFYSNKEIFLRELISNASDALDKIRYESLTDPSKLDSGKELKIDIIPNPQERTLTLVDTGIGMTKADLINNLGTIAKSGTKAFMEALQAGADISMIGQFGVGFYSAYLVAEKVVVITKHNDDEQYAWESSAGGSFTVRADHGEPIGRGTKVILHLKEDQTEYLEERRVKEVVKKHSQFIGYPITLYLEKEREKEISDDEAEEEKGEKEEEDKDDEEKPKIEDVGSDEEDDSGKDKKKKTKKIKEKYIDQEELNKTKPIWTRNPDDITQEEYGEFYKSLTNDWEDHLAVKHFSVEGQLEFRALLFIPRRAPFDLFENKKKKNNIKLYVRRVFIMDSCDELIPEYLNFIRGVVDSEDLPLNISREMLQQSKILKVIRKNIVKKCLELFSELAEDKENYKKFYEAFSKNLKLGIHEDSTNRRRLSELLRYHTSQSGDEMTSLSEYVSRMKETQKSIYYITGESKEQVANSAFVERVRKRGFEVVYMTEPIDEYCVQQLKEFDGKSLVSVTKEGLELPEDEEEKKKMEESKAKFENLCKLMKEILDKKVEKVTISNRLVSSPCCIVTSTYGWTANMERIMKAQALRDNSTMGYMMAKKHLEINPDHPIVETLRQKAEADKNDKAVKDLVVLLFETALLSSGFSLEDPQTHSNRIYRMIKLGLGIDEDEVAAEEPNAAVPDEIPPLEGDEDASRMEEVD
pIC50: −log10 of the molar value.
Measurement Type: pIC50

1. O=C(O[C@@H]1Cc2c(O)cc(O)cc2O[C@@H]1c1cc(O)c(O)c(O)c1)c1cc(O)c(O)c(O)c1 [EPIGALOCATECHIN GALLATE] | 3.81
2. O=C(O[C@@H]1Cc2c(O)cc(O)cc2O[C@@H]1c1cc(O)c(O)c(O)c1)c1ccncc1 | 4.19
3. O=C(O[C@@H]1Cc2c(O)cc(O)cc2O[C@@H]1c1cc(O)c(O)c(O)c1)C1CCCCC1 | 4.52
4. O=C(O[C@H]1Cc2c(O)cc(O)cc2O[C@@H]1c1ccc(O)c(O)c1)C1CCCCC1 | 4.01
5. O=C(O[C@@H]1Cc2c(O)cc(O)cc2O[C@@H]1c1ccc(O)c(O)c1)C1CC1 | 3.39

Origin of measurements: ChEMBL document CHEMBL3259794
